tested on: Trichoderma atroviride strain T1; assay: Germination rate after air-drying with protectants, strain T1; type: cell-based; settings: after air-drying at room temperature overnight; material:spore 1:1, lecithin 1:10
value.kind: Germination rate (%) T1
Reply with just the number (in %).

Solved entries (count: 2):
O[C@H]1[C@H](O)[C@@H](O)[C@H](O)[C@@H](O)[C@H]1O; 65.03
OC[C@H]1O[C@H](O[C@H]2O[C@H](CO)[C@@H](O)[C@H](O)[C@H]2O)[C@H](O)[C@@H](O)[C@@H]1O; 68.75

Incoming: Need Germination rate (%) T1 of OC[C@@H](O)[C@@H](O)[C@H](O)[C@H](O)CO , thanks.
Outgoing: 69.95

====

assay: Dry matter content / residual moisture by heating balance; assay type: physicochemical; settings: dry matter content after air-drying; strain B35
Listed here are molecules together with their documented DMC (%) B35.
Entry rule: numbers only, all in %.

Here's what some known entries look like.
OC[C@@H](O)[C@@H](O)[C@H](O)[C@@H](O)CO; 93.99
OC[C@H]1O[C@H](O[C@H]2O[C@H](CO)[C@@H](O)[C@H](O)[C@H]2O)[C@H](O)[C@@H](O)[C@@H]1O; 91.84
O[C@H]1[C@H](O)[C@@H](O)[C@H](O)[C@@H](O)[C@H]1O; 95.59
OC[C@@H](O)[C@@H](O)[C@H](O)[C@H](O)CO; 94.88

Continue with the next molecule.
Incoming: Entry OC[C@H]1O[C@@](CO)(O[C@H]2O[C@H](CO)[C@@H](O)[C@H](O)[C@H]2O)[C@@H](O)[C@@H]1O has what DMC (%) B35?
Outgoing: 91.59
